experiment-summary: in vitro
condition-info: human, mt4 cells
endpoint-label: MCC

Find the recorded MCC belonging to CCCCCCCC(CC(=O)O)OC(=O)CC(CCCCCCC)O[C@@H]1O[C@@H](C)[C@H](O)[C@@H](O)[C@H]1O[C@@H]1O[C@@H](C)[C@H](O)[C@@H](O)[C@H]1O (stereo partly shown) and report it.
> 169 µg/mL

* * *

experiment-summary: range-finding study phase (single intravenous dose)
condition-info: mouse, in vivo, iv
endpoint-label: LD50 (mg/kg)
Kindly answer with a numeric value in mg/kg, unit omitted.

Look at this compound and give its reported LD50. CCCCCCCC(CC(=O)O)OC(=O)CC(CCCCCCC)O[C@@H]1O[C@@H](C)[C@H](O)[C@@H](O)[C@H]1O[C@@H]1O[C@@H](C)[C@H](O)[C@@H](O)[C@H]1O (stereo partly shown) [Rhamnolipid (II)]
105
